# tgt: thymidine phosphorylase (E. coli) (Escherichia coli)
# Construct: purchased Sigma Aldrich, USA; host or cells: Escherichia coli
# experimentSummary: In-vitro thymidine phosphorylase inhibition assay (spectrophotometric)
# Format: biochemical
# setupConditions: recombinant E. coli TP, thymidine substrate, pH 7.0, 30° C., 290 nm; read-out: IC50 (μM ± S.E.M.), thymidine phosphorylase inhibition
Under this convention, yes denotes IC50 strictly below 200 µM and no denotes IC50 at or above 200 µM.

compound="COc1ccc(/C=N/NC(=O)c2ccc(O)cc2)cc1 [Compound 10]" tgt="thymidine phosphorylase (E. coli) (Escherichia coli)" assignedlabel=yes
compound="O=C(N/N=C/c1cc(O)c(O)cc1O)c1ccc(O)cc1 [Compound 6]" tgt="thymidine phosphorylase (E. coli) (Escherichia coli)" assignedlabel=no
compound="COc1cccc(/C(C)=N/NC(=O)c2ccc(O)cc2)c1O [Compound 29]" tgt="thymidine phosphorylase (E. coli) (Escherichia coli)" assignedlabel=yes
compound="C/C(=N\\NC(=O)c1ccc(O)cc1)c1c(O)cccc1O [Compound 27]" tgt="thymidine phosphorylase (E. coli) (Escherichia coli)" assignedlabel=yes

###

# tgt: thymidine phosphorylase (E. coli) (Escherichia coli, UniProt P07650)
# Construct: purchased Sigma Aldrich, USA; host or cells: Escherichia coli
# Sequence (P07650 whole entry): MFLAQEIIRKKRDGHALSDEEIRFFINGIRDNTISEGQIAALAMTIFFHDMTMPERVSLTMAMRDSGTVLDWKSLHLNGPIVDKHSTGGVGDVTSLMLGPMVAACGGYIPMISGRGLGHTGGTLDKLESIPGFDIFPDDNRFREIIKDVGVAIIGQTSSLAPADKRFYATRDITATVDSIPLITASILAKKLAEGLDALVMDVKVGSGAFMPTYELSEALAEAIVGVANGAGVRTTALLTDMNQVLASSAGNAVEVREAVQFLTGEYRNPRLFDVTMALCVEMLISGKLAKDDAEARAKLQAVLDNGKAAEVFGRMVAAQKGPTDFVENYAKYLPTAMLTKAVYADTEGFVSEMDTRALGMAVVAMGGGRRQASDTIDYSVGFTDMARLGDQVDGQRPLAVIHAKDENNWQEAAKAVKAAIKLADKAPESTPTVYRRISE
# experimentSummary: In-vitro thymidine phosphorylase inhibition assay (spectrophotometric)
# Type: biochemical
# setupConditions: recombinant E. coli TP, thymidine substrate, pH 7.0, 30° C., 290 nm; read-out: IC50 (μM ± S.E.M.), thymidine phosphorylase inhibition
observationType: log10 IC50 (log10 of the value in µM)

querysmiles=O=C(N/N=C/c1ccc(Br)cc1)c1ccc(O)cc1 observationtype="log10 IC50" recordednumber=2.20
querysmiles=CC/C(=N\NC(=O)c1ccc(O)cc1)c1cc(O)ccc1O observationtype="log10 IC50" recordednumber=2.24
querysmiles=O=C(N/N=C/c1ccc(O)c(O)c1)c1ccc(O)cc1 observationtype="log10 IC50" recordednumber=2.36
querysmiles=O=C(N/N=C/c1cc(Br)cc(Br)c1O)c1ccc(O)cc1 observationtype="log10 IC50" recordednumber=0.83
querysmiles=COc1ccc(O)c(/C=N/NC(=O)c2ccc(O)cc2)c1 observationtype="log10 IC50" recordednumber=2.24
querysmiles=O=C(N/N=C/c1cccc(Cl)c1)c1ccc(O)cc1 observationtype="log10 IC50" recordednumber=2.20
querysmiles=COc1ccccc1/C=N/NC(=O)c1ccc(O)cc1 observationtype="log10 IC50" recordednumber=2.26
querysmiles=Cc1ccccc1/C=N/NC(=O)c1ccc(O)cc1 observationtype="log10 IC50" recordednumber=2.25
querysmiles=O=C(N/N=C/c1cccc(O)c1O)c1ccc(O)cc1 observationtype="log10 IC50" recordednumber=2.23
querysmiles=O=C(N/N=C/c1ccccc1O)c1ccc(O)cc1 observationtype="log10 IC50" recordednumber=2.28

###

# Tested on: mouse fibroblast cell line (3T3)
# experimentSummary: MTT anti-proliferative assay, 3T3 cells
# Assay type: cell-based
# setupConditions: in comparison to cyclohexamide
observationType: inhibition of the proliferation of 3T3 cells (in words)

querysmiles=CCOc1cccc(/C=N/NC(=O)c2ccc(O)cc2)c1O result="significantly inhibit"
querysmiles=O=C(N/N=C/c1ccccc1O)c1ccc(O)cc1 result="significantly inhibit"
querysmiles=C/C(=N\NC(=O)c1ccc(O)cc1)c1c(O)cccc1O result="significantly inhibit"
querysmiles=COc1ccc(O)c(/C=N/NC(=O)c2ccc(O)cc2)c1 result="significantly inhibit"
querysmiles=COc1cccc(/C(C)=N/NC(=O)c2ccc(O)cc2)c1O result="significantly inhibit"
querysmiles=O=C(N/N=C/c1cccc(O)c1O)c1ccc(O)cc1 result="significantly inhibit"
querysmiles=O=C(N/N=C/c1cc(O)c(O)cc1O)c1ccc(O)cc1 result="significantly inhibit"
querysmiles=C/C(=N\NC(=O)c1ccc(O)cc1)c1cc(O)ccc1O result="significantly inhibit"
querysmiles=O=C(N/N=C/c1cc(Br)cc(Br)c1O)c1ccc(O)cc1 result="significantly inhibit"
querysmiles=CC/C(=N\NC(=O)c1ccc(O)cc1)c1cc(O)ccc1O result="significantly inhibit"
querysmiles=O=C(N/N=C/c1ccc(O)c(O)c1)c1ccc(O)cc1 result="significantly inhibit"

###

# tgt: thymidine phosphorylase (E. coli) (Escherichia coli, UniProt P07650)
# Construct: purchased Sigma Aldrich, USA; host or cells: Escherichia coli
# experimentSummary: In-vitro thymidine phosphorylase inhibition assay (spectrophotometric)
# Format: biochemical
# setupConditions: recombinant E. coli TP, thymidine substrate, pH 7.0, 30° C., 290 nm; read-out: IC50 (μM ± S.E.M.), thymidine phosphorylase inhibition
observationType: IC50 (µM)

molecule="O=C(N/N=C/c1ccc(Cl)cc1)c1ccc(O)cc1 [Compound 12]" recordednumber=159
molecule="C/C(=N\\NC(=O)c1ccc(O)cc1)c1cc(O)ccc1O [Compound 28]" recordednumber=183
molecule="CCOc1cccc(/C=N/NC(=O)c2ccc(O)cc2)c1O [Compound 21]" recordednumber=190
molecule="COc1ccc(/C=N/NC(=O)c2ccc(O)cc2)cc1OC [Compound 11]" recordednumber=204
molecule="O=C(N/N=C/c1cccc(O)c1)c1ccc(O)cc1 [Compound 2]" recordednumber=180

###

Reported log10(Ki) values for the following molecules.
# tgt: thymidine phosphorylase (E. coli) (Escherichia coli, UniProt P07650)
# Construct: purchased Sigma Aldrich, USA; host or cells: Escherichia coli
# experimentSummary: Kinetic (mechanistic) studies on thymidine phosphorylase
# Format: biochemical
# setupConditions: thymidine as variable substrate; secondary re-plot, confirmed by Dixon plot; read-out: Ki (μM ± S.E.M.), dissociation constant
observationType: log10(Ki) (log10 of the value in µM)

querysmiles=O=C(N/N=C/c1ccc(O)c(O)c1)c1ccc(O)cc1 recordednumber=2.25
querysmiles=O=C(N/N=C/c1cc(Br)cc(Br)c1O)c1ccc(O)cc1 recordednumber=0.24
querysmiles=C/C(=N\NC(=O)c1ccc(O)cc1)c1c(O)cccc1O recordednumber=2.23
querysmiles=O=C(N/N=C/c1ccc(Cl)cc1)c1ccc(O)cc1 recordednumber=2.14
querysmiles=O=C(N/N=C/c1ccc(Br)cc1)c1ccc(O)cc1 recordednumber=1.91
querysmiles=CC/C(=N\NC(=O)c1ccc(O)cc1)c1cc(O)ccc1O recordednumber=2.20
